Tested on: ATP;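 note: ATP exposure 15 min at 22 °C before imaging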
procedure_text: switch fluorescence ratio, 500 uM ATP over buffer (Cy3 cluster intensity, sum of 5 cycles each) (fold (ratio)); higher = stronger signal-on switching upon ATP binding; sequences stand for … in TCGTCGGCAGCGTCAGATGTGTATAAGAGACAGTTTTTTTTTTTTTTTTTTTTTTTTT…TC
measurement_parameters: aptamer strand: ATP DNA aptamer (quencher-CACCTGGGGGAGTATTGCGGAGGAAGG + anchor), 100 nM annealed; ATP concentration: 500 uM
Each record here notes measured switch fluorescence ratio.
assay_readout: switch fluorescence ratio

- construct_sequence: "ATGCCTAGTG"
  assay_readout: "switch fluorescence ratio"
  test_value: 0.994
- construct_sequence: "ATGTTACGTT"
  assay_readout: "switch fluorescence ratio"
  test_value: 1.02
- construct_sequence: "CAACCTGCAG"
  assay_readout: "switch fluorescence ratio"
  test_value: 1.06
- construct_sequence: "TACCCGGGGT"
  assay_readout: "switch fluorescence ratio"
  test_value: 0.983
- construct_sequence: "TTTATTCCGT"
  assay_readout: "switch fluorescence ratio"
  test_value: 0.999
- construct_sequence: "TTGATCTTAG"
  assay_readout: "switch fluorescence ratio"
  test_value: 1.02

----------
Tested on: ATP;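 note: ATP exposure 15 min at 22 °C before imaging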
procedure_text: switch fluorescence ratio, 500 uM ATP over buffer (Cy3 cluster intensity, sum of 5 cycles each) (fold (ratio)); higher = stronger signal-on switching upon ATP binding; sequences stand for … in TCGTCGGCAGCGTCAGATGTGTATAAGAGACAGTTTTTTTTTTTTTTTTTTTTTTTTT…TC
measurement_parameters: aptamer strand: ATP DNA aptamer (quencher-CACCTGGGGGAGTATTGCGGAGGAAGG + anchor), 100 nM annealed; ATP concentration: 500 uM
Each record here notes measured switch fluorescence ratio.
assay_readout: switch fluorescence ratio

- construct_sequence: "ATGCTATAGT"
  assay_readout: "switch fluorescence ratio"
  test_value: 1.02
- construct_sequence: "TATTTTTAAA"
  assay_readout: "switch fluorescence ratio"
  test_value: 1.02
- construct_sequence: "GACTTGAATG"
  assay_readout: "switch fluorescence ratio"
  test_value: 0.976
- construct_sequence: "GTTTTTAGGG"
  assay_readout: "switch fluorescence ratio"
  test_value: 1.02
- construct_sequence: "CTCGTCCGAC"
  assay_readout: "switch fluorescence ratio"
  test_value: 1.53
- construct_sequence: "TTGTTATGTG"
  assay_readout: "switch fluorescence ratio"
  test_value: 0.955
- construct_sequence: "GGTCGCGGGG"
  assay_readout: "switch fluorescence ratio"
  test_value: 1.03
- construct_sequence: "AGGACAGCGC"
  assay_readout: "switch fluorescence ratio"
  test_value: 1.02
- construct_sequence: "CGGCCCAGAA"
  assay_readout: "switch fluorescence ratio"
  test_value: 1
- construct_sequence: "ATTTGTAGGT"
  assay_readout: "switch fluorescence ratio"
  test_value: 0.997
- construct_sequence: "GTGGGTGTCC"
  assay_readout: "switch fluorescence ratio"
  test_value: 1.01
- construct_sequence: "ACGTGGGGAG"
  assay_readout: "switch fluorescence ratio"
  test_value: 1.08
- construct_sequence: "ATTGTTTTGT"
  assay_readout: "switch fluorescence ratio"
  test_value: 0.987
- construct_sequence: "GGTAGTGGGA"
  assay_readout: "switch fluorescence ratio"
  test_value: 1
- construct_sequence: "AACGGCGCTA"
  assay_readout: "switch fluorescence ratio"
  test_value: 1.05
- construct_sequence: "GGACGATGGT"
  assay_readout: "switch fluorescence ratio"
  test_value: 1
- construct_sequence: "TCCCTCCCCT"
  assay_readout: "switch fluorescence ratio"
  test_value: 1.25
- construct_sequence: "TTGTAATTTA"
  assay_readout: "switch fluorescence ratio"
  test_value: 1.01
- construct_sequence: "GGTTTCAGAT"
  assay_readout: "switch fluorescence ratio"
  test_value: 0.975
- construct_sequence: "GATGCTTCTT"
  assay_readout: "switch fluorescence ratio"
  test_value: 0.985
- construct_sequence: "ATTTATAGAT"
  assay_readout: "switch fluorescence ratio"
  test_value: 0.979
- construct_sequence: "TTCTTTGGGA"
  assay_readout: "switch fluorescence ratio"
  test_value: 1.02
- construct_sequence: "GGTAAACGGA"
  assay_readout: "switch fluorescence ratio"
  test_value: 1.02
- construct_sequence: "AGGGAACGAT"
  assay_readout: "switch fluorescence ratio"
  test_value: 0.969
- construct_sequence: "CGGGAATGGC"
  assay_readout: "switch fluorescence ratio"
  test_value: 1.06
- construct_sequence: "ATGGGCAGGT"
  assay_readout: "switch fluorescence ratio"
  test_value: 0.985
- construct_sequence: "TATTTTTCAT"
  assay_readout: "switch fluorescence ratio"
  test_value: 1.01
- construct_sequence: "TGGGGCATCG"
  assay_readout: "switch fluorescence ratio"
  test_value: 1
- construct_sequence: "TTTTTGGGTA"
  assay_readout: "switch fluorescence ratio"
  test_value: 0.973
- construct_sequence: "ACTGAATTTG"
  assay_readout: "switch fluorescence ratio"
  test_value: 1.02
- construct_sequence: "TCATAAGTGA"
  assay_readout: "switch fluorescence ratio"
  test_value: 0.985
- construct_sequence: "CGTTTGTTGG"
  assay_readout: "switch fluorescence ratio"
  test_value: 0.984
- construct_sequence: "TCCGTATATT"
  assay_readout: "switch fluorescence ratio"
  test_value: 1.1
- construct_sequence: "GGGGTGAAAT"
  assay_readout: "switch fluorescence ratio"
  test_value: 1
- construct_sequence: "TAGTAGGGGA"
  assay_readout: "switch fluorescence ratio"
  test_value: 1.01
- construct_sequence: "CGGGGGTTAC"
  assay_readout: "switch fluorescence ratio"
  test_value: 1.4
- construct_sequence: "ACAGTTGCTC"
  assay_readout: "switch fluorescence ratio"
  test_value: 1.02
- construct_sequence: "AATAGCTCGG"
  assay_readout: "switch fluorescence ratio"
  test_value: 0.987
